# assay.comment: Cmax in cynomolgus monkey plasma at 2 mg/kg administered via oral gavage by RP-HPLC analysis
# Assay type: ADME, organism-based, Macaca fascicularis
# Parameters: dose 2 mg/kg, route oral
recorded.endpoint: Cmax (µM)
Numbers only, in µM.

Prompt line: Fill in the blank: the reported Cmax of C[C@H](CC(=O)O)CC(=O)c1c(CCCCCCc2ccccc2)n(C)c2ccc(Cl)cc12 is ____.
Response line: 7.8

----------
# assay.comment: Tmax in cynomolgus monkey plasma at 1 mg/kg administered via oral gavage by RP-HPLC analysis
# Format: ADME, organism-based, Macaca fascicularis
recorded.endpoint: Tmax (min)
Answers are plain numbers, in min.

Prompt line: I'd like to know its Tmax. The molecule in question is C[C@H](CC(=O)O)CC(=O)c1c(CCCCCCc2ccccc2)n(C)c2ccc(Cl)cc12
Response line: 42

----------
# assay.comment: AUC (0 to 24 hrs) in cynomolgus monkey plasma at 10 mg/kg administered via oral gavage by RP-HPLC analysis
# Format: ADME, organism-based, Macaca fascicularis
# Parameters: time < 24 hr, dose 10 mg/kg, route oral
recorded.endpoint: AUC(0-t) at 24 h (µM·h)
Numbers only, in µM·h.

Prompt line: Would you kindly share the measured AUC(0-t) at 24 h for C[C@H](CC(=O)O)CC(=O)c1c(CCCCCCc2ccccc2)n(C)c2ccc(Cl)cc12 ?
Response line: 171

----------
# assay.comment: Tmax in cynomolgus monkey plasma at 5 mg/kg administered via oral gavage by RP-HPLC analysis
# Type: ADME, organism-based, Macaca fascicularis
recorded.endpoint: Tmax (h)
One number for each entry, in h.

Prompt line: Could you tell me which Tmax is on file for C[C@H](CC(=O)O)CC(=O)c1c(CCCCCCc2ccccc2)n(C)c2ccc(Cl)cc12 ?
Response line: 1.2

----------
# assay.comment: Cmax in cynomolgus monkey plasma at 10 mg/kg administered via oral gavage by RP-HPLC analysis
# Type: ADME, organism-based, Macaca fascicularis
# Set-up: dose 10 mg/kg, route oral
recorded.endpoint: Cmax (µM)
Answers are plain numbers, in µM.

Prompt line: Query (compound): C[C@H](CC(=O)O)CC(=O)c1c(CCCCCCc2ccccc2)n(C)c2ccc(Cl)cc12 ; field requested: Cmax
Response line: 35

----------
# assay.comment: Cmax in cynomolgus monkey plasma at 30 mg/kg administered via oral gavage by RP-HPLC analysis
# Type: ADME, organism-based, Macaca fascicularis
# Parameters: dose 30 mg/kg, route oral
recorded.endpoint: Cmax (µM)
One number for each entry, in µM.

Would you please look over these solved cases?
{"compound": "CCCCCCc1c(C(=O)CC(C)CC(=O)O)c2cc(Cl)ccc2n1C (racemic)", "Cmax, µM": 121}
{"compound": "CCCCCCc1cc2ccc(Cl)cc2n1C(=O)CC(C)CC(=O)O (racemic)", "Cmax, µM": 27}

For every listed record, write down its Cmax.
1. C[C@H](CC(=O)O)CC(=O)c1c(CCCCCCc2ccccc2)n(C)c2ccc(Cl)cc12
2. CC(CC(=O)O)CC(=O)c1c(CCCCCCc2ccccc2)n(C)c2ccc(Cl)cc12 (racemic)
3. CC(CC(=O)O)CC(=O)n1c(CCCCCc2ccccc2)cc2ccc(Cl)cc21 (racemic)
4. CCCCCCc1c(C(=O)C[C@H](C)CC(=O)O)c2cc(Cl)ccc2n1C

Response line:
106
108
55
36
